# Tested on: NCI-H522 lung
# EXPERIMENT SUMMARY: NCI tumour cell line growth inhibition, 48 h
MEASURE NAME: TGI

Examples from the recorded data:
CN(C)c1ccc(N=Nc2ccc(Br)cn2)c(O)c1; > 28.6 µM
CN(C)CCNC(=O)c1cccc(NC(=O)c2ccccc2)c1[N+](=O)[O-]; > 100 µM
CC1[C@@H]2CC=C3C4CCC5Cc6nc7c(nc6C[C@@]5(C)C4CC(=O)[C@]32CO[C@@]1(O)C(O)CC(C)(C)O)CC1CCC2C3=C[C@H]4O[C@@]5(O[C@@](C)(CO)C[C@@H]5O)C(C)[C@@]4(O)[C@]3(C)[C@@H](O)CC2[C@]1(C)C7 (stereo not given in full); 0.124 µM
COC(=O)CCC(C)[C@H]1CCC2C3C(C[C@H](OC(C)=O)[C@@]21C)[C@@]1(C)CCC2(C[C@H]1C[C@H]3OC(C)=O)OOC1(CCC(C(C)(C)C)CC1)OO2 (stereo not given in full); > 100 µM

# evaluate next
Query (compound): CS(=O)(=O)OCCn1c2c(c3c(O)cccc31)C(=O)c1ccccc1-2 ; field requested: TGI
> 100 µM

###

# Tested on: HL-60(TB) leukemia
# EXPERIMENT SUMMARY: NCI tumour cell line growth inhibition, 48 h
MEASURE NAME: log10 TGI (log10 of the value in µM)
Log10 applied to TGI; unit prior to transform: µM.

Reference set, count: 10
O=c1oc2ccccc2c(O)c1/C=N\c1nc(-c2ccc(O)c(O)c2)cs1; 0.92
COc1cc2c3c(c1OC)-c1ccccc1C(C(O)c1ccccc1)C3N(C)CC2 (stereo not given); 1.64
CC/C=C/c1cc2c(c3[nH]ccc13)[C@@H](C)CC2C (stereo not given in full) (tested in a mixture with another compound); 1.65
O=C(O)c1c[nH]c2cc(OCc3ccccc3)ccc2c1=O; 0.37
COc1ccc2[nH]c(Cl)c(/C=C3/C(=O)N(c4ccccc4)c4ccccc43)c2c1; 0.96
O=C1OC(CC(=O)c2ccc(Cl)cc2)C(Cl)=C1Cl (stereo not given); 1.89
COc1cccc(C2c3cc4c(cc3OC(NNc3ccccc3)C2C)OCO4)c1OC (stereo not given); 1.23
Cc1ccc(/C(=C/C=C(/C#N)C(N)=O)Sc2ncnn2C)cc1; 1.92
COc1c(O)ccc(C2=Cc3ccc(O)cc3OC2)c1OC; 1.03
C=C(C)[C@@H]1CC[C@]2(C)[C@H](CC[C@@H]3[C@@H]([C@@](C)(O)CCC=C(C)C)CC[C@]32C)[C@@]1(C)CCC(=O)N1CCN(C)CC1; 1.28

Which measured log10 TGI belongs to C/C(=N\NC(=S)N1CCN(c2ccccn2)CC1)c1cccc(C)n1 , tested on HL-60(TB) leukemia?
1.25

Give HL-60(TB) leukemia log10 TGI for COC(=O)C1C(O)C(C)C(O)C(C)(O)/C=C/C=C(C)C(=O)Nc2c(C)c(OC(C)=O)c3c(c2O)C(=O)C(C)=C2OCOC(=C23)C(C)=CC(C)(O)C(O)C(C)C1OC(C)=O (stereo not given)
1.70

Query log10 TGI on HL-60(TB) leukemia for CCCCCCCCCOc1c(OC)cc(C2CC(=O)Nc3c2c(C)nn3-c2nc3ccccc3[nH]2)cc1OC (stereo not given)
0.65

Query for HL-60(TB) leukemia: what log10 TGI does the record show for NC(=O)c1ccc(NCC2=CC(=O)C=CC2=O)cc1 ?
1.48

Checklist item: log10 TGI tested on HL-60(TB) leukemia, entry O=C(O)CCC(=O)N1C/C(=C\c2ccccc2)C(=O)/C(=C/c2ccccc2)C1 , value?
0.66

###

Listed here: items and their measured TGI.
# System: NCI/ADR-RES ovarian
# EXPERIMENT SUMMARY: NCI tumour cell line growth inhibition, 48 h

Example entries and their recorded answers appear below.
COc1ccc2[nH]c(Cl)c(/C=C3/C(=O)N(c4ccccc4)c4ccccc43)c2c1; 6.45 µM
CC(=O)O[C@H]1C(=O)[C@@]2(C)[C@H]([C@H](OC(=O)C3CCCCC3)[C@]3(O)C[C@H](OC(=O)[C@H](O)[C@@H](NC(=O)OC(C)(C)C)c4ccccc4)C(C)=C1C3(C)C)[C@]1(OC(C)=O)CO[C@@H]1C[C@@H]2O; > 5.94 µM
COc1ccc(N2CCOCC2)cc1; > 100 µM
Cc1cnc(NC2CCOCC2)nc1-n1cnc(C(=O)N[C@H](CN)c2cc(F)cc(Cl)c2)c1; > 91.9 µM

# returns recorded TGI (system: NCI/ADR-RES ovarian) for Nc1ncnc2c1ncn2C1OC(CO)C2OC21 (stereo unspecified)
> 10 µM

Request body: readout TGI, system NCI/ADR-RES ovarian, query CN1C(=O)C23CC4(C56CC78SSC(CO)(C(=O)N7C5Nc5ccccc56)N(C)C8=O)c5ccccc5NC4N2C(=O)C1(CO)SS3 (stereo unspecified) . Return the value.
0.189 µM

###

# Tested on: HS 578T breast
# EXPERIMENT SUMMARY: NCI tumour cell line growth inhibition, 48 h
MEASURE NAME: GI50

CCCCCCCCCOc1c(OC)cc(C2CC(=O)Nc3c2c(C)nn3-c2nc3ccccc3[nH]2)cc1OC (stereo not given); 0.622 µM
CS(=O)(=O)OCCn1c2c(c3c(O)cccc31)C(=O)c1ccccc1-2; > 100 µM
Nc1cc2ccccc2c(O)c1O; 5.7 µM
COC(=O)CCC1=C(C)C(C)=N/C1=C\c1[nH]c(-c2ccc[nH]2)cc1OC; 1.06 µM

Next compound, GI50 to be filled in.
Any idea what GI50 was measured for NC(=O)c1cc(Cl)ccc1NC(=O)COc1ccccc1 ?
4.65 µM

###

# Tested on: RPMI-8226 leukemia
# EXPERIMENT SUMMARY: NCI tumour cell line growth inhibition, 48 h; in the data active = GI50 below about 0.43 µM; inactive = the rest
Entry note: the call must match one of yes (active), no (inactive)

Check out these entries, answers already filled in.
CC1CN=C(c2cccc(-c3ccc(-c4ccccc4)o3)c2)N1 (centres undefined); no
COc1ccc2[nH]c(=O)c(/C=C/C(=O)c3ccccc3OC)cc2c1; yes
CCC(C)C1=NC(C(=O)N/C=C\c2c[nH]c3cc(Br)c(Br)cc23)(C(C)C)NC1=O (centres undefined); no

Here is another compound to look at.
Dear colleague, could you share the recorded outcome for CCN1C2=C(SC(=S)C1=C1SC(C(=O)OC)=C(C(=O)OC)S1)SC(=Nc1ccc(OC)cc1)C2=O when you have a moment?
no

###

# Test system: OVCAR-3 ovarian
# EXPERIMENT SUMMARY: NCI tumour cell line growth inhibition, 48 h
Listed below: TGI values for each entry.

Study these solved cases before continuing.
COc1ccc(-n2cnc3c(NCC(=O)O)ncnc32)cc1; > 100 µM
Brc1cccc(Nc2ncnc3sc4c(c23)CCC2(C4)OCCO2)c1; > 100 µM
c1ccc([P+](c2ccccc2)(c2ccccc2)c2ccc([P+](c3ccccc3)(c3ccccc3)c3ccccc3)c3ccccc23)cc1; > 100 µM

What value of TGI has been recorded for this entry: CCCCc1ccc(N2C(=O)c3cc([N+](=O)[O-])cnc3S2(=O)=O)cc1
> 100 µM

Could you share which TGI value was measured for Cc1cc2nn(C3CCCO3)nc2cc1C (stereo unspecified) ?
> 100 µM

# query: TGI of entry NCC(O)CSP(=O)(O)O (stereo unspecified)
> 100 µM

Which value of TGI has been reported for COC(=O)C1(C(=O)OC)N=C(C)OC1c1ccoc1 (stereo unspecified) in the records?
> 100 µM

Field request: TGI | item: O=C(Nc1ccc(-n2ccc3c(NC(=O)c4ccccc4)ncnc32)cc1)c1ccc(Cl)c(C(F)(F)F)c1
9.37 µM

TGI lookup needed for Cc1nc2c(nc1C)C(=O)C1=C(C2=O)C2C=CC1CC2 , thanks.
17.3 µM

Returns the measured TGI for the input compound. Input: O=C(Cc1ccc(OCc2ccccc2)cc1)NCc1ccc2c(c1)OCO2
> 100 µM

Dear colleague, I am looking for the recorded TGI of the following compound: S=c1[nH]nc(C23CC4CC(CC(C4)C2)C3)n1-c1ccc(Cl)cc1
30.4 µM

###

# Test system: OVCAR-8 ovarian
# EXPERIMENT SUMMARY: NCI tumour cell line growth inhibition, 48 h
MEASURE NAME: TGI

Record excerpt, results attached:
CSc1cc(Cl)c(C)cc1S(=O)(=O)NC(=O)Nc1ccc(Cl)cc1; > 100 µM
CCC(C)C1=NC(C(=O)N/C=C\c2c[nH]c3cc(Br)c(Br)cc23)(C(C)C)NC1=O (centres undefined); > 100 µM
CCCC12Cc3c(OC)ccc(OC)c3CC(Cc3c(OC)ccc(OC)c31)C2=O (centres undefined); > 100 µM
C=Cc1ccccc1C1C(C(=O)OCC)=C(C)N=C2OC(C(=O)OC)C(=O)N21 (centres undefined); > 100 µM
Cc1nn(CN2CCN(C)CC2)c(=S)n1/N=C/c1ccc(-c2ccc(Cl)cc2Cl)o1; > 100 µM

Fill blank: measured TGI of the compound O=c1[nH]nc(NCCc2ccccc2)c2nnn(Cc3ccccc3)c12 is ____.
> 100 µM

Endpoint output: TGI of O=c1cc(O)ccn1C1C=C(CO)C(O)C1O (centres undefined) . Value?
> 625 µM

Any idea what TGI was measured for Cc1cn(C2OC(CO)C(O)C2O)c(=O)[nH]c1=O (centres undefined) ?
> 1000 µM

Could you tell me which TGI is on file for O=C1c2ccccc2C(=O)c2c1ccc(O)c2O ?
> 100 µM
